B1: Hairpin Ribozyme (parent)
chain: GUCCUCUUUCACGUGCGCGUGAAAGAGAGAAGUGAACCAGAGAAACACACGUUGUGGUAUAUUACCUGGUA

variants of: B1; assay: self-cleavage, relative activity (ratio to wild type); higher = more cleavage; co-transcriptional
Assign class by self-cleavage: not lower than 0.2 means Satisfied; lower than 0.2 means Not satisfied.

**Query** Exam item: decide whether the reported self-cleavage for C6G C10G is at least 0.2.
**Result** Satisfied

**Query** Exam item: decide whether the reported self-cleavage for A26U C50G is at least 0.2.
**Result** Not satisfied

Reference for the values: the RNAGym collection of RNA variant scans (doi:10.7554/elife.80360)
